Values compiled from patent US20260356940.

Molecular target: T1, SLAMF6 (human, UniProt Q96DU3)
T1 chain: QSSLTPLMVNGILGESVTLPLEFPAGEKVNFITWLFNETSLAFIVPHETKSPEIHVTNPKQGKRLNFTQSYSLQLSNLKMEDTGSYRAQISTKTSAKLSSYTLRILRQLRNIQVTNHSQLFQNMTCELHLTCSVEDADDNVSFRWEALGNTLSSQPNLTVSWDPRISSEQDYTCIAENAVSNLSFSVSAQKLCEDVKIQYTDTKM
Assay: SPR
Kd overview
Numeric only. Scale: nM

Previously resolved entries follow.
>  <Binder>
LB-032 (antibody, V domains shown) VH: EVQLLESGGGLVQPGGSLRLSCAASGFTFGSYGMSWVRQAPGKGLEWVSYISYSGSYTYYADSVKGRFTISRDNSKNTLYLQMNSLRAEDTAVYYCARGADYYSVLDYWGQGTLVTVSS VL: DIQMTQSPSSLSASVGDHVTITCRASQSISSYLNWYQQKPGKAPKLLIYAASSLQSGVPSRFSGSGSGTDFTLTISSLQPEDFATYYCQQFSTSPPSTFGQGTKLEIK

>  <Value Reported>
12

$$$$
>  <Binder>
LB-20H10 (antibody, V domains shown) VH: QVQLQQSGAELVRPGTSVKMSCKAAGYTFTNYWIGWVKQRPGHGLEWIGDIYPGGGYTHHNEKFKGKATLTADTSSSTAYMQLSSLTSEDSAIYYCARSVLPGFAYWGQGTLVTVSA VL: DIVMTQSHKFMSTSVGDRVSITCKASQDVNTAVAWCQQKPGQSPKLLIYSASYRFTGVPDRFTGSGSGTDFTFTISSVQAEDLAVYFCQQHYSTPYTFGGGTKLEIK

>  <Value Reported>
4.1

$$$$
>  <Binder>
LB-031 (antibody, V domains shown) VH: EVQLLESGGGLVQPGGSLRLSCAASGFTFGSYYMGWVRQAPGKGLEWVSYISGYSGYTYYADSVKGRFTISRDNSKNTLYLQMNSLRAEDTAVYYCARFSSPAGYPRMDYWGQGTLVTVSS VL: DIQMTQSPSSLSASVGDHVTITCRASQSISSYLNWYQQKPGKAPKLLIYAASSLQSGVPSRFSGSGSGTDFTLTISSLQPEDFATYYCQQYYTLPTFGQGTKLEIK

>  <Value Reported>
0.38

$$$$
>  <Binder>
LB-116 (antibody, V domains shown) VH: EVQLLESGGGLVQPGGSLRLSCAASGFTFSYSYMYWVRQAPGKGLEWVSSISSSGGSTSYADSVKGRFTISRDNSKNTLYLQMNSLRAEDTAVYYCARPNVDSYMDYWGQGTLVTVSS VL: DIQMTQSPSSLSASVGDHVTITCRASQSISSYLNWYQQKPGKAPKLLIYAASSLQSGVPSRFSGSGSGTDFTLTISSLQPEDFATYYCQQSYIYLPFTFGQGTKLEIK

>  <Value Reported>
6

$$$$

Would you kindly look at the next entry?
Annotate the binder LB-302 (antibody, V domains shown) VH: EVQLLESGGGLVQPGGSLRLSCAASGFTFGGYGMSWVRQAPGKGLEWVSYIGYGGSYTYYADSVKGRFTISRDNSKNTLYLQMNSLRAEDTAVYYCARDGAGSYGFFDYWGQGTLVTVSS VL: DIQMTQSPSSLSASVGDHVTITCRASQSISSYLNWYQQKPGKAPKLLIYAASSLQSGVPSRFSGSGSGTDFTLTISSLQPEDFATYYCQQFYTNPLLTFGQGTKLEIK with its measured Kd. 16
